Sourced from ChEMBL document CHEMBL6182926

- System: Nakaseomyces glabratus
- assay notes: Antifungal activity against Clinical isolate Candida glabrata assessed as inhibition of visible growth
- Format: functional
The reader will find reported MIC80 values listed item by item below.
Numeric answer only, unit µg/mL assumed.

// solved cases for MIC80 follow
CN(Cc1ccc(-c2ccc(Cl)cc2F)cc1)CC(O)(Cn1cncn1)c1ccc(F)cc1F (stereo not drawn) = 0.025
CN(Cc1ccc(-c2ccc(C#N)cc2)cn1)CC(O)(Cn1cncn1)c1ccc(F)cc1F (stereo not drawn) = 1.6
[2H]C([2H])([2H])N(Cc1ccc(-c2ccc(Cl)cc2)cc1)[C@H](C)[C@](O)(Cn1cncn1)c1ccc(F)cc1F = 0.012

Given "C[C@@H](N(C)Cc1ccc(-c2ccc(Cl)cc2)cc1)[C@](O)(Cn1cncn1)c1ccc(F)cc1F" , state its recorded MIC80.
0.012
